# TARGET: human GluN1/GluN2B NMDA receptors (Homo sapiens, UniProt Q13224)
# Construct: expressed in transfected cells
# Sequence (Q13224 27-1484, other chains not shown): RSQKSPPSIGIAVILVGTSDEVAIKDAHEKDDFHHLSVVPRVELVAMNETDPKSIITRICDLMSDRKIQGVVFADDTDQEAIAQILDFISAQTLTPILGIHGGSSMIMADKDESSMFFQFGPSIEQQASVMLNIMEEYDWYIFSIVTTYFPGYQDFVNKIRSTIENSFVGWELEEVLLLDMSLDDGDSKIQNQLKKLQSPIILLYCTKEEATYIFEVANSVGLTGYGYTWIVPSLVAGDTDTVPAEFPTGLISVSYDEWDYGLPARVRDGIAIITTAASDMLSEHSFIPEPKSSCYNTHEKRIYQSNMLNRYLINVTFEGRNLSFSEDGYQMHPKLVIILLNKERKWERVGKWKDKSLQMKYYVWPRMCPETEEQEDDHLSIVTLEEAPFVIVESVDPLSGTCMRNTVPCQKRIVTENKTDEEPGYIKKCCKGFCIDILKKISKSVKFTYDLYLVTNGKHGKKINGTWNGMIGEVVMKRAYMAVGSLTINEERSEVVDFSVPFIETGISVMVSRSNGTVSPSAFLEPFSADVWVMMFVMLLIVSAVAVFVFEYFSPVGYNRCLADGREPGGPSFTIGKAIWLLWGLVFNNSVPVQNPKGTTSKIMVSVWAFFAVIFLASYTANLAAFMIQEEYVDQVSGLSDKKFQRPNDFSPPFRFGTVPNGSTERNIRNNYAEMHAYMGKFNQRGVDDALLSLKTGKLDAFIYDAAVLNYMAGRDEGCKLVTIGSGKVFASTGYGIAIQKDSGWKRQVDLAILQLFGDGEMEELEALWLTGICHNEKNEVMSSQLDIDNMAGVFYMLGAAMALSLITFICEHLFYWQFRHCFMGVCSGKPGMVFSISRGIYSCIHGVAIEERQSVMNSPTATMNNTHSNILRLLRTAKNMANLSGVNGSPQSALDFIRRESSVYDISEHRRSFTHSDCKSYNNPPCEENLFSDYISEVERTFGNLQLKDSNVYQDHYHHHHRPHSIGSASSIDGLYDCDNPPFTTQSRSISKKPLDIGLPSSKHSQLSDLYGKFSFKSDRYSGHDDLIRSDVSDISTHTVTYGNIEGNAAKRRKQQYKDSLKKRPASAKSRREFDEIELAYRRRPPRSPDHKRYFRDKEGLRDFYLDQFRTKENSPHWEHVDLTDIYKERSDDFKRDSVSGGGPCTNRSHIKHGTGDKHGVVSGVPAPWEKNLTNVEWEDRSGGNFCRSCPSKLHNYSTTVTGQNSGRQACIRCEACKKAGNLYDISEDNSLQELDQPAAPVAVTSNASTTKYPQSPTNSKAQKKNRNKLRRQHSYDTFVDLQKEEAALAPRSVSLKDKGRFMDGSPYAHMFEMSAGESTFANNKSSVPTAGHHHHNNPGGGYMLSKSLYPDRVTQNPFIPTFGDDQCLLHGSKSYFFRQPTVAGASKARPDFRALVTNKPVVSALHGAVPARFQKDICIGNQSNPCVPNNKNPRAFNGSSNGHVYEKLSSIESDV
# PROTOCOL_SUMMARY: Cell-based calcium flux (FLIPR) assay on cloned human NR1/NR2B ion channels expressed in mammalian cells (standard and HTS buffer variants)
# CONDITION_SUMMARY: standard assay buffer (0.5 mM MgCl2 dye loading; 137 mM NaCl, 4 mM KCl assay buffer), human GluN1/GluN2B cells, read-out: NR2B IC50 (μM) standard assay
Overview of reported IC50 across a group of compounds:
Just the number in µM, nothing appended.

INPUT: Please give the measured IC50 for this compound: Cn1c(=O)n(CC(=O)N2CC(F)C2)c2cc(-c3cc(C(F)F)cs3)cnc21
OUTPUT: 0.02

INPUT: Please give the measured IC50 for this compound: Cn1c(=O)n(Cc2cccnn2)c2cc(-c3ccc(C(F)F)s3)cnc21
OUTPUT: 0.033

New cases:
INPUT: Please give the measured IC50 for this compound: O=c1[nH]c2ncc(-c3ccccc3)cc2n1CCN1CC(F)C1
OUTPUT: 1.44

INPUT: Please give the measured IC50 for this compound: O=c1[nH]c2ncc(-c3ccccc3)cc2n1CCN1CCC1
OUTPUT: 0.283

INPUT: Please give the measured IC50 for this compound: Cc1csc(-c2cnc3c(c2)n(CC(=O)N2CC(F)C2)c(=O)n3C)n1
OUTPUT: 1.6

INPUT: Please give the measured IC50 for this compound: Cn1ccc(Cn2c(=O)[nH]c3ncc(-c4ccc(F)c(Cl)c4)cc32)n1
OUTPUT: 4.73

INPUT: Please give the measured IC50 for this compound: Cn1c(=O)n(CC(=O)N2CCC2)c2cc(-c3cc(C(F)F)cs3)cnc21
OUTPUT: 0.038

INPUT: Please give the measured IC50 for this compound: O=c1[nH]c2ncc(-c3cccc(Cl)c3)cc2n1Cc1ccccn1
OUTPUT: 2.61

====

# TARGET: human GluN1/GluN2B NMDA receptors (Homo sapiens, UniProt Q13224)
# Construct: expressed in transfected cells
# PROTOCOL_SUMMARY: Cell-based calcium flux (FLIPR) assay on cloned human NR1/NR2B ion channels expressed in mammalian cells (standard and HTS buffer variants)
# CONDITION_SUMMARY: standard assay buffer (0.5 mM MgCl2 dye loading; 137 mM NaCl, 4 mM KCl assay buffer), human GluN1/GluN2B cells, read-out: NR2B IC50 (μM) standard assay
Note to self: use Met only for IC50 readings below 0.2 µM; a reading exactly at 0.2 µM still gets Not met.

INPUT: Does this compound meet the criterion IC50 < 0.2 µM? Cn1c(=O)n(CC(=O)NC2(C)COC2)c2cc(-c3cccc(C(F)(F)F)c3)cnc21
OUTPUT: Not met

INPUT: Does this compound meet the criterion IC50 < 0.2 µM? Cc1cc(-c2cnc3[nH]c(=O)n(Cc4cnccc4C)c3c2)ccc1F
OUTPUT: Met

====

Overview of reported IC50 across a group of compounds:
# TARGET: human GluN1/GluN2B NMDA receptors (Homo sapiens)
# Construct: expressed in transfected cells
# PROTOCOL_SUMMARY: Cell-based calcium flux (FLIPR) assay on cloned human NR1/NR2B ion channels expressed in mammalian cells (standard and HTS buffer variants)
# CONDITION_SUMMARY: standard assay buffer (0.5 mM MgCl2 in dye loading buffer; 137 mM NaCl, 4 mM KCl in assay buffer), human GluN1/GluN2B, read-out: NR2B IC50 (μM) standard assay
Just the number in µM, nothing appended.

Sample answers from the record:
INPUT: Please give the measured IC50 for this compound: Cn1c(=O)n(Cc2csnn2)c2cc(-c3ccc(C(F)(F)F)s3)cnc21
OUTPUT: 0.305

INPUT: Please give the measured IC50 for this compound: CN(C)c1cccc(-c2cnc3[nH]c(=O)n(Cc4cccc(F)c4)c3c2)c1
OUTPUT: 6.08

INPUT: Please give the measured IC50 for this compound: CCOc1ccc(F)cc1-c1cnc2[nH]c(=O)n(CC(=O)NC3CC3)c2c1
OUTPUT: 0.336

New cases:
INPUT: Please give the measured IC50 for this compound: CN(C)C(=O)Cn1c(=O)n(C)c2ncc(-c3cccc(C(F)F)c3)cc21
OUTPUT: 0.019

====

# TARGET: human GluN1/GluN2B NMDA receptors (Homo sapiens)
# Construct: expressed in transfected cells
# PROTOCOL_SUMMARY: Cell-based calcium flux (FLIPR) assay on cloned human NR1/NR2B ion channels expressed in mammalian cells (standard and HTS buffer variants)
# CONDITION_SUMMARY: standard assay buffer (0.5 mM MgCl2 in dye loading buffer; 137 mM NaCl, 4 mM KCl in assay buffer), human GluN1/GluN2B, read-out: NR2B IC50 (μM) standard assay
Overview of reported IC50 across a group of compounds:
Just the number in µM, nothing appended.

INPUT: Please give the measured IC50 for this compound: Cc1c(F)ccc(-c2cnc3c(c2)n(CC(=O)N(C)C)c(=O)n3CF)c1F [Example 599]
OUTPUT: 0.025

====

# TARGET: human GluN1/GluN2B NMDA receptors (Homo sapiens)
# Construct: expressed in transfected cells
# PROTOCOL_SUMMARY: Cell-based calcium flux (FLIPR) assay on cloned human NR1/NR2B ion channels expressed in mammalian cells (standard and HTS buffer variants)
# CONDITION_SUMMARY: standard assay buffer (0.5 mM MgCl2 in dye loading buffer; 137 mM NaCl, 4 mM KCl in assay buffer), human GluN1/GluN2B, read-out: NR2B IC50 (μM) standard assay
Note to self: use label 1 only for IC50 readings below 0.02 µM; a reading exactly at 0.02 µM still gets label 0.

Sample answers from the record:
INPUT: Does this compound meet the criterion IC50 < 0.02 µM? Cc1ccc(-c2cnc3c(c2)n(CC(=O)N2CCC2)c(=O)n3C)s1
OUTPUT: label 0

INPUT: Does this compound meet the criterion IC50 < 0.02 µM? Cn1c(=O)n(CC(=O)N2CC(F)(F)C2)c2cc(-c3cccc(C(F)(F)F)c3F)cnc21
OUTPUT: label 1

INPUT: Does this compound meet the criterion IC50 < 0.02 µM? Cn1c(=O)n(Cc2csnn2)c2cc(-c3ccc(C(F)F)s3)cnc21
OUTPUT: label 0

New cases:
INPUT: Does this compound meet the criterion IC50 < 0.02 µM? Cc1cc(Cn2c(=O)n(C)c3ncc(-c4ccc(F)c(C)c4F)cc32)no1
OUTPUT: label 0

====

# TARGET: human GluN1/GluN2B NMDA receptors (Homo sapiens, UniProt Q05586+Q13224)
# Construct: expressed in transfected cells
# Sequence (Q13224 27-1484, other chains not shown): as above
# PROTOCOL_SUMMARY: Cell-based calcium flux (FLIPR) assay on cloned human NR1/NR2B ion channels expressed in mammalian cells (standard and HTS buffer variants)
# CONDITION_SUMMARY: standard assay buffer (0.5 mM MgCl2 dye loading; 137 mM NaCl, 4 mM KCl assay buffer), human GluN1/GluN2B cells, read-out: NR2B IC50 (μM) standard assay
REPORTED_ENDPOINT: IC50 (µM)
Just the number in µM, nothing appended.

Sample answers from the record:
INPUT: Please give the measured IC50 for this compound: O=c1[nH]c2ncc(-c3ccc(F)c(C(F)(F)F)c3)cc2n1CC1CCO1 (racemic)
OUTPUT: 0.046

INPUT: Please give the measured IC50 for this compound: O=c1[nH]c2ncc(-c3cccc(C(F)(F)F)c3)cc2n1CC1CCO1 (single isomer, unassigned) [Example 223]
OUTPUT: 0.036

New cases:
INPUT: Please give the measured IC50 for this compound: O=c1[nH]c2ncc(-c3cccc(C(F)(F)F)c3F)cc2n1CC1CCN1 (racemic)
OUTPUT: 0.044

INPUT: Please give the measured IC50 for this compound: [2H]c1c(-c2ccc(C(F)(F)F)s2)cnc2c1n(CC(=O)N1CCC1)c(=O)n2C
OUTPUT: 0.01

INPUT: Please give the measured IC50 for this compound: Cn1c(=O)n(CC(=O)N2CC(F)C2)c2cc(-c3csc(C(F)(F)F)c3)cnc21
OUTPUT: 0.018

INPUT: Please give the measured IC50 for this compound: O=c1[nH]c2ncc(-c3ccc(F)c(C(F)(F)F)c3)cc2n1CC1CCN1 (racemic)
OUTPUT: 0.442

INPUT: Please give the measured IC50 for this compound: Cn1c(=O)n(CC2CCO2)c2cc(-c3cccc(C(F)(F)F)c3)cnc21 (racemic)
OUTPUT: 0.211

INPUT: Please give the measured IC50 for this compound: O=c1[nH]c2ncc(-c3cccc(C(F)(F)F)c3)cc2n1CC1CC1(F)F (racemic)
OUTPUT: 0.4

INPUT: Please give the measured IC50 for this compound: CC(C(=O)NC1CC1)n1c(=O)[nH]c2ncc(-c3cccc(C(F)(F)F)c3)cc21 (racemic)
OUTPUT: 7.32

====

# TARGET: human GluN1/GluN2B NMDA receptors (Homo sapiens)
# Construct: expressed in transfected cells
# PROTOCOL_SUMMARY: Cell-based calcium flux (FLIPR) assay on cloned human NR1/NR2B ion channels expressed in mammalian cells (standard and HTS buffer variants);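 further: stable Tet-On inducible cell line, Ca2+ influx triggered by glutamate at about EC40 plus 10 µM glycine, fluorescent dye read-out over 5 min, normalized to control wells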
# CONDITION_SUMMARY: standard assay buffer (0.5 mM MgCl2 dye loading; 137 mM NaCl, 4 mM KCl assay buffer), human GluN1/GluN2B cells, read-out: NR2B IC50 (μM) standard assay
REPORTED_ENDPOINT: IC50 (µM)
Just the number in µM, nothing appended.

Sample answers from the record:
INPUT: Please give the measured IC50 for this compound: O=c1[nH]c2ncc(-c3cccc(C(F)(F)F)c3)cc2n1CC1CC1
OUTPUT: 0.115

INPUT: Please give the measured IC50 for this compound: CN(C)C(=O)Cn1c(=O)[nH]c2ncc(-c3ccc(C(F)(F)F)s3)cc21
OUTPUT: 0.012

INPUT: Please give the measured IC50 for this compound: Cc1ccc(-c2cnc3[nH]c(=O)n(Cc4ccccn4)c3c2)cc1
OUTPUT: 7.08

INPUT: Please give the measured IC50 for this compound: O=c1[nH]c2ncc(-c3ccc(F)c(F)c3)cc2n1Cc1cncc(F)c1
OUTPUT: 0.032

INPUT: Please give the measured IC50 for this compound: O=c1[nH]c2ncc(-c3ccnc(C(F)(F)F)c3)cc2n1CCN1CCC1
OUTPUT: 1.75

INPUT: Please give the measured IC50 for this compound: Cc1cc(-c2cnc3c(c2)n(Cc2cccnn2)c(=O)n3C)ccc1F
OUTPUT: 0.009

New cases:
INPUT: Please give the measured IC50 for this compound: CCNC(=O)Cn1c(=O)[nH]c2ncc(-c3ccc(F)cc3C)cc21
OUTPUT: 0.088

INPUT: Please give the measured IC50 for this compound: Cn1c(=O)n(Cc2ccncn2)c2cc(-c3ccc(F)c(F)c3)cnc21
OUTPUT: 2.21

INPUT: Please give the measured IC50 for this compound: Cc1ccc(Cn2c(=O)[nH]c3ncc(-c4cccc(C(F)(F)F)c4)cc32)cn1
OUTPUT: 0.256

These data points were gathered from patent US11759455B2.
